- TARGET OR SYSTEM: Adenosine receptor A3 (Homo sapiens, UniProt P0DMS8)
- Sequence (P0DMS8 whole entry): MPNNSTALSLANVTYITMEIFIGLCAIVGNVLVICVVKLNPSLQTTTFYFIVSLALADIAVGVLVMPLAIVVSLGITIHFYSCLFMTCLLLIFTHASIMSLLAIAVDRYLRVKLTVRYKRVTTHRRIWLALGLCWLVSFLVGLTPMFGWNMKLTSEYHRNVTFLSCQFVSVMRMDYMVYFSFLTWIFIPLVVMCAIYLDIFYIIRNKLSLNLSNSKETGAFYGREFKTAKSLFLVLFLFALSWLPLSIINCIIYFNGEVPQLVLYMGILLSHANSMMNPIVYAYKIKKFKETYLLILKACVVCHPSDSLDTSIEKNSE
- PROCEDURE SUMMARY: Binding affinity to Nluc-A3R (unknown origin) expressed in HEK293 cells by nanoBRET assay
- Type: cell-based
READOUT KIND: Kd (nM)

{"GIVEN SMILES": "N#Cc1cc2c(-c3ccccc3)n[nH]c2c(Nc2ccccc2)n1", "Kd (nM)": 26.3}

[a] COc1cc(Nc2nc(Cl)cc3c(-c4ccccc4)n[nH]c23)cc(OC)c1OC
[b] O=C(CNc1ccccc1)Nc1n[nH]c2cnc(Nc3ccccc3)cc12
Query: From the items above, decide which of a and b has the lower Kd reading. Output the label that corresponds to your choice.
Response: a

[a] COc1cc(Nc2nccc3c(-c4ccccc4)n[nH]c23)cc(OC)c1OC
[b] COc1cc(Nc2nc(CN)cc3c(-c4ccccc4)n[nH]c23)cc(OC)c1OC
Query: From the items above, decide which of a and b has the lower Kd reading. Output the label that corresponds to your choice.
Response: a
